B1: OR4K15 (parent)
chain: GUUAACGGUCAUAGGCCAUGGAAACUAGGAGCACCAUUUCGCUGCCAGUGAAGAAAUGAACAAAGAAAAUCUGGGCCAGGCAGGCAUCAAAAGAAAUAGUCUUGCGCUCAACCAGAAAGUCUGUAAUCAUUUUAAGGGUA

Variants of: B1
Assay: self-cleavage, relative activity (ratio to wild type); higher = more cleavage; in vitro, sequencing; the parent is a self-cleaving ribozyme
measured attribute: self-cleavage
// print number alone

The following variants have reported results that may help.
1) U70C A118G | 0.35
2) A51U A64G | 1.28
3) A60U G106C | 0
4) A54U U108C | 0.01
5) G7U A56G | 1.29

Query self-cleavage for G7A G137U 2.13

Please look at this variant and report its self-cleavage: A66G A110U 0.78

Assign self-cleavage to the following record: A23G G48A 1.29

// provenance: the RNAGym collection of RNA variant scans (doi:10.7554/elife.90254)
